Measured values drawn from ChEMBL document CHEMBL3137667 for this set.

# conditionDetails: human
quantityMeasured: Hepatotoxicity (choleostasis)
Numbers only.

CCOc1ccc(NC(C)=O)cc1 [PHENACETIN]	0
CNn1cc(C(=O)O)c(=O)c2cc(F)c(N3CCN(C)CC3)cc21 [AMIFLOXACIN]	0
CCCC(=O)Nc1ccc(OCC(O)CNC(C)C)c(C(C)=O)c1 (centres undefined) [ACEBUTOLOL]	1

Consider now this further compound.
Query block: Report Hepatotoxicity (choleostasis) for CCC1(c2ccc(N)cc2)CCC(=O)NC1=O (centres undefined) [AMINOGLUTETHIMIDE] please.
Result block: 3

* * *

# experimentDescription: Highest frequency of moderate liver toxicity observed during clinical trials, expressed as a percentage. [column '% BIOL' in source]
# conditionDetails: human
quantityMeasured: Hepatotoxicity (moderate)
Note to self: number, then unit, no commentary.

CO[C@@]1(NC(=O)C(C(=O)[O-])c2ccc(O)cc2)C(=O)N2C(C(=O)[O-])=C(CSc3nnnn3C)CO[C@@H]21.[Na+].[Na+] (some centres not stated) [MOXALACTAM DISODIUM]	36.5%
CC1COc2c(N3CCN(C)CC3)c(F)cc3c(=O)c(C(=O)O)cn1c23 (configuration not stated)	42.2%
CO/N=C(\C(=O)N[C@@H]1C(=O)N2C(C(=O)O)=C(CSc3cnns3)CS[C@H]12)c1csc(N)n1	14.3%
Cc1cc(C(=O)NNCc2ccccc2)no1	0%
N#CN [CYANAMIDE]	0%

Below are 2 compounds. Give each one its Hepatotoxicity (moderate).
1. CCNC1=Nc2ccc(Cl)cc2C(C)(c2ccccc2)O1 (configuration not stated)
2. CCC(c1ccccc1)c1c(O)c2ccccc2oc1=O (configuration not stated)

Result block:
1. 0%
2. 37%

* * *

# experimentDescription: Highest frequency of acute liver toxicity observed during clinical trials, expressed as a percentage. [column '% AIGUE' in source]
# conditionDetails: human
Assignment: determine reported Hepatotoxicity (acute) for the given compounds.
Numbers only, in %.

O[C@H]1[C@H]2[C@H](O)CCCN2C[C@H]1O [TRIDOLGOSIR]	10.5

Below are 2 compounds. Give each one its Hepatotoxicity (acute).
1. COc1ccc2c(C(=O)c3ccc(Cl)cc3)c(C)n(CC(=O)O)c2c1 [CLOMETACIN]
2. CC1=C(/C=C/C(C)=C/C=C/C(C)=C\C(=O)O)C(C)(C)CCC1 [ISOTRETINOIN]

Result block:
1: 0; 2: 8.8

Below are 7 compounds. Give each one its Hepatotoxicity (acute).
1. O=C(O)C1N=C(c2ccccc2)c2cc(Cl)ccc2NC1=O (centres undefined) [CLORAZEPIC ACID]
2. O=C(Nc1cccc2c(=O)cc(-c3nnn[nH]3)oc12)c1ccc(OCCCCc2ccccc2)cc1
3. Clc1ccccc1C(c1ccccc1)(c1ccccc1)n1ccnc1 [CLOTRIMAZOLE]
4. O=c1ccc2ccccc2o1 [COUMARIN]
5. CN(C)/N=N/c1[nH]cnc1C(N)=O [DACARBAZINE]
6. C[C@]12CCC(=O)C=C1CC[C@@H]1[C@@H]2[C@@H](O)C[C@@]2(C)[C@H]1CC[C@]2(O)C(=O)CO [HYDROCORTISONE]
7. CN1CCC(=C2c3ccccc3C=Cc3ccccc32)CC1 [CYPROHEPTADINE]

Result block:
0
0
0
4.3
0
0
0

Below are 4 compounds. Give each one its Hepatotoxicity (acute).
1. O=C(O)CCC(=O)c1ccc(-c2ccccc2)cc1 [FENBUFEN]
2. COc1ccc(OC)c(Cc2cnc3nc(N)nc(N)c3c2C)c1 [PIRITREXIM]
3. CC(=O)NCCOC(=O)C(Oc1cccc(C(F)(F)F)c1)c1ccc(Cl)cc1 (centres undefined) [HALOFENATE]
4. CN1CCN(C2=Nc3cc(F)ccc3Cc3ccccc32)CC1 [FLUPERLAPINE]

Result block:
1. 0
2. 0
3. 0
4. 0

* * *

Assignment: determine reported Hepatotoxicity (choleostasis) for the given compounds.
# conditionDetails: human
*1 amine or outer side, *2 acyl side, *3 side chain or, on linkers, in order; H or OH if unused. Where a SMILES comes first, the peptide text is derived from it. Bridges are numbered along the chain shown (N, C = ends). [ ]: non-standard residue; d: D form. The star is where a group is joined. ξ: configuration not given here. X2 = N=C1NCCC([C@H](N[*:1])C(=O)[*:2])N1; ΔAla(Z-3-ureido) = NC(=O)N/C=C(\N)C(=O)O; ξβ3hOrn = NCCCC(N)CC(=O)*; Dap = NC[C@H](N)C(=O)O

Cc1nc2n(c(=O)c1CCN1CCC(c3noc4cc(F)ccc34)CC1)CCCC2 [RISPERIDONE]	2
Cc1ccc(C)c(OCCCC(C)(C)C(=O)O)c1 [GEMFIBROZIL]	0
COC(=O)C1=C(C)NC(C)=C(C(=O)OC(C)C)C1c1cccc2nonc12 (stereo not given) [ISRADIPINE]	0
COC(=O)c1nc2cc(Cl)c3cccnc3c2o1 [QUAZOLAST]	0
CC(C)(S)[C@@H](N)C(=O)O [PENICILLAMINE]	28
NS(=O)(=O)c1cc2c(cc1Cl)NC(CC1CCCC1)NS2(=O)=O (stereo not given) [CYCLOPENTHIAZIDE]	0

Below are 4 compounds. Give each one its Hepatotoxicity (choleostasis).
1. CCc1[nH]c(=O)[nH]c1C(=O)c1ccncc1 [PIROXIMONE]
2. Cc1nnc2n1-c1ccc(Cl)cc1C(c1ccccc1)=NC2 [ALPRAZOLAM]
3. CC1Cc2ccccc2N1NC(=O)c1ccc(Cl)c(S(N)(=O)=O)c1 (stereo not given) [INDAPAMIDE]
4. CCCCC(C)(C)[C@H](O)/C=C/[C@H]1[C@H](C)CC(=O)[C@@H]1C/C=C\CCCC(=O)O [TRIMOPROSTIL]

Result block:
1. 0
2. 1
3. 1
4. 0

Below are 2 compounds. Give each one its Hepatotoxicity (choleostasis).
1. O=C(CCCN1CCC(C(=O)c2ccc(F)cc2)CC1)c1ccc(F)cc1 [LENPERONE]
2. CNC(=O)C[C@@H](N)C(=O)N[C@@H](C(=O)N[C@@H]1C(=O)N2[C@@H]1SC(C)(C)[C@@H]2C(=O)O)c1ccc(O)cc1 [ASPOXICILLIN]

Result block:
0
0

Below are 2 compounds. Give each one its Hepatotoxicity (choleostasis).
1. O=[As](O)(O)c1ccc(NCCNc2ccc([As](=O)(O)O)cc2)cc1 [DIFETARSONE]
2. CN1c2ccccc2C(NCCCCCCC(=O)O)c2ccc(Cl)cc2S1(=O)=O (stereo not given) [TIANEPTINE]

Result block:
1: 2; 2: 2

Below are 6 compounds. Give each one its Hepatotoxicity (choleostasis).
1. COc1cc(NS(=O)(=O)c2ccc(N)cc2)nc(OC)n1 [SULFADIMETHOXINE]
2. COC(=O)Nc1nc2cc(C(=O)c3ccc(F)cc3)ccc2[nH]1 [FLUBENDAZOLE]
3. CCC(C)n1ncn(-c2ccc(N3CCN(c4ccc(OC[C@H]5CO[C@](Cn6cncn6)(c6ccc(F)cc6F)O5)cc4)CC3)cc2)c1=O (stereo not given in full) [SAPERCONAZOLE]
4. C[C@@H]1NC(=O)[C@@H](N)CNC(=O)[C@H](C2CCNC(=N)N2)NC(=O)/C(=C/NC(N)=O)NC(=O)[C@H](CNC(=O)CC(N)CCCN)NC1=O.N=C1NCCC([C@@H]2NC(=O)/C(=C/NC(N)=O)NC(=O)[C@H](CNC(=O)CC(N)CCCN)NC(=O)[C@H](CO)NC(=O)[C@@H](N)CNC2=O)N1 (stereo partly drawn) [CAPREOMYCIN] (H-[Dap]S[Dap](ξβ3hOrn)[ΔAla(Z-3-ureido)][X2]; lactam 1-C)
5. CN(C/C=C/C#CC(C)(C)C)Cc1cccc2ccccc12 [TERBINAFINE]
6. C[C@@H](O)[C@H]1C(=O)N2C(C(=O)[O-])=C(SC3Cn4cnc[n+]4C3)[C@H](C)[C@H]12 (stereo not given in full) [BIAPENEM]

Result block:
1: 0; 2: 0; 3: 0; 4: 0; 5: 15; 6: 0

Below are 5 compounds. Give each one its Hepatotoxicity (choleostasis).
1. c1ccc(C2(N3CCCCC3)CCCCC2)cc1 [PHENCYCLIDINE]
2. O=C(NCCN1CCN(c2cccc3c2OC[C@H](CO)O3)CC1)c1ccc(F)cc1 [FLESINOXAN]
3. CC(C)NCC(O)COc1ccc(COCCOC(C)C)cc1 (stereo not given) [BISOPROLOL]
4. CC/C=C(\C(=O)N[C@@H]1C(=O)N2C(C(=O)OCOC(=O)C(C)(C)C)=C(COC(N)=O)CS[C@H]12)c1csc(N)n1
5. Cc1nnc(SCC2=C(C(=O)O)N3C(=O)[C@@H](NC(=O)Cn4cnnn4)[C@H]3SC2)s1 [CEFAZOLIN]

Result block:
0
0
0
0
1

* * *

# experimentDescription: Highest frequency of moderate liver toxicity observed during clinical trials, expressed as a percentage. [column '% BIOL' in source]
# conditionDetails: human
// NB: equality with 10% counts as 0.0; only Hepatotoxicity (moderate) strictly below is 1.0

See these solved cases before continuing.
O=C(CCOCCOCCOCCOCCC(=O)Nc1c(I)cc(I)c(C(=O)O)c1I)Nc1c(I)cc(I)c(C(=O)O)c1I [IODOXAMIC ACID]	1.0
Clc1ccc(COC(Cn2ccnc2)c2ccc(Cl)cc2Cl)c(Cl)c1 (centres undefined) [MICONAZOLE]	1.0
COC(=O)C1=C(C)NC(C)=C(C(=O)OCC(C)C)C1c1ccccc1[N+](=O)[O-] (centres undefined) [NISOLDIPINE]	0.0
CCCCNC(=O)NS(=O)(=O)c1ccc(N)cc1 [CARBUTAMIDE]	0.0
CC(C)CCOc1ccc(NC(=S)Nc2ccc(OCCC(C)C)cc2)cc1 [TIOCARLIDE]	1.0
CC[C@H]1[C@@H]2C[C@H]3[C@@H]4N(C)c5ccccc5[C@]45C[C@@H]([C@@H]2[C@H]5O)N3[C@@H]1O [AJMALINE]	1.0
C[C@]12CCC(=O)C=C1CC[C@@H]1[C@@H]2[C@@H](O)C[C@@]2(C)[C@H]1CC[C@]2(O)C(=O)CO [HYDROCORTISONE]	0.0
CCOC(=O)NC1=C(N2CC2)C(=O)C(NC(=O)OCC)=C(N2CC2)C1=O [DIAZIQUONE]	0.0

Next up:
Query block: Input CN1CCN(C(=S)Nc2ccc(Nc3ccc([N+](=O)[O-])cc3)cc2)CC1 [AMOCARZINE] ; condition: Hepatotoxicity (moderate) strictly below 10%. Does it hold?
Result block: 1.0
